- Test system: NOMO1
- method-notes: cell viability relative to DMSO control; higher = less cytotoxic
- experimental-parameters: RPMI 5 mM glucose + 10% FBS; 48 h; 5.12 µM
Examples of molecules with documented cell viability follow.

molecule	cell viability / %
NC\1=N\C(=O)N(\C=N1)[C@H]2C[C@H](O)[C@@H](CO)O2	71.1
CC1(C)OC/2=C(\[C@H](NCC3=CC=CC=C3)[C@@H]1O)C(=O)C4=CC=CC=C4C2=O	37.4
Nc1ccc([S+](=O)([O-])Nc2ccccn2)cc1	126
CN1[C@@H]2CC(O)C[C@H]1[C@@H]1O[C@@H]12 (some centres undefined)	121
CCCn1c(=O)c2[nH]c(-c3cnn(Cc4cccc(C(F)(F)F)c4)c3)nc2n(CC)c1=O	82.7
Cc1cc(SCc2sc(-c3ccc(C(F)(F)F)c(F)c3)nc2C)ccc1OCC(=O)O	88.7
COc1cc2c(NC3CCN(C(C)C)CC3)nc(C3CCCCC3)nc2cc1OCCCN1CCCC1	118
Clc1ccc(COC(Cn2ccnc2)c2ccc(Cl)cc2Cl)cc1 (centres undefined)	119
CCOc1cc2c(c(F)c1OCC)C(=N)N(CC(=O)c1cc(N3CCOCC3)c(OC)c(C(C)(C)C)c1)C2	122
